Task for the reader: assign each of the following compounds its reported EC50.
Tested on: HCV 1b_Huh-Luc/Neo-ET cell line persistently expressing a bicistronic genotype 1b replicon in Huh 7 cells
assay summary: HCV replicon assay (luciferase readout, 72 h)
Format: cell-based, HCV genotype 1b
test conditions: Hepatitis C virus, Huh-7, 72 h, read-out: Inhibition of HCV genotype 1b

{"columns": ["molecule", "EC50"],
 "data": [
  ["COC(=O)N[C@@H](CC(=O)N1CCC[C@H]1c1ncc(-c2ccc(C#Cc3ccc4nc([C@@H]5CCCN5C(=O)C[C@H](NC(=O)OC)C(C)C)[nH]c4c3)cc2)[nH]1)C(C)C", "10 to 999 nM"],
  ["C[C@@H]1OC(=O)N[C@H]1C(=O)N1CCC[C@H]1c1ncc(-c2ccc(C#Cc3ccc(-c4cnc([C@@H]5CCCN5C(=O)[C@@H]5NC(=O)O[C@H]5C)[nH]4)cc3)cc2)[nH]1", "10 to 999 nM"]
]}

Batch request: EC50 for each of the following compounds.
1. O=C(N[C@@H](C(=O)N1CCC[C@H]1c1ncc(-c2ccc(C#Cc3ccc(-c4cnc([C@@H]5CCCN5C(=O)[C@H](NC(=O)C5CC5)c5ccccc5)[nH]4)cc3)cc2)[nH]1)c1ccccc1)C1CC1
2. COC(=O)N[C@@H](C(=O)N1CCC[C@H]1c1ncc(-c2ccc(C#Cc3ccc(-c4cnc([C@@H]5CCCN5C(=O)[C@H](NC(=O)N5CCC[C@H](O)C5)c5ccccc5)[nH]4)cc3)cc2)[nH]1)c1ccccc1
3. O=C(N[C@@H](C(=O)N1CCC[C@H]1c1ncc(-c2ccc(C#Cc3ccc(-c4cnc([C@@H]5CCCN5C(=O)[C@H](NC(=O)N5CCCCC5)c5ccccc5)[nH]4)cc3)cc2)[nH]1)c1ccccc1)N1CCCCC1
4. COC(=O)N[C@@H](C(=O)N[C@@H](C)c1ncc(-c2ccc(C#Cc3ccc(-c4cnc([C@H](C)NC(=O)[C@H](NC(=O)OC)C(C)C)[nH]4)cc3)cc2)[nH]1)C(C)C

*A*
1. < 1 nM
2. < 1 nM
3. < 1 nM
4. < 1 nM

Batch request: EC50 for each of the following compounds.
1. O=C([C@@H](c1ccccc1)N1CCCCC1)N1CCC[C@H]1c1ncc(-c2ccc(C#Cc3ccc(-c4cnc([C@@H]5CCCN5C(=O)[C@@H](c5ccccc5)N5CCCCC5)[nH]4)cc3)cc2)[nH]1
2. C[C@@H](NC(=O)[C@@H]1CCCN1C(=O)[C@H](NC(=O)C1CC1)c1ccccc1)c1ccc(C#Cc2cnc([C@@H]3CCCN3C(=O)[C@H](NC(=O)C3CC3)c3ccccc3)[nH]2)cc1

*A*
1. < 1 nM
2. > 1000 nM

Batch request: EC50 for each of the following compounds.
1. COC(=O)N[C@@H](C(=O)N1CCC[C@H]1c1ncc(C#Cc2ccc(-c3ccc(-c4cnc([C@@H]5CCCN5C(=O)[C@@H](c5ccccc5)N5CCOCC5)[nH]4)cc3)cc2)[nH]1)c1ccccc1
2. COC(=O)N[C@H](C(=O)N1CCC[C@H]1c1ncc(-c2ccc(C#Cc3ccc(-c4cnc([C@@H]5CCCN5C(=O)[C@@H](NC(=O)OC)C(C)(C)O)[nH]4)cc3)cc2)[nH]1)C(C)(C)O
3. CC(C)[C@@H](NC(=O)OC(C)(C)C)C(=O)N1CCC[C@H]1c1ncc(C#Cc2ccc(C#Cc3cnc([C@@H]4CCCN4C(=O)[C@H](NC(=O)OC(C)(C)C)C(C)C)[nH]3)cc2)[nH]1
4. CN1CCC[C@@H]1C(=O)N[C@@H](C(=O)N1CCC[C@H]1c1ncc(-c2ccc(C#Cc3ccc(-c4cnc([C@@H]5CCCN5C(=O)[C@H](NC(=O)C5CC5)c5ccccc5)[nH]4)cc3)cc2)[nH]1)c1ccccc1

*A*
1. < 1 nM
2. < 1 nM
3. > 1000 nM
4. < 1 nM

Batch request: EC50 for each of the following compounds.
1. COC(=O)N[C@@H](C(=O)N1CCC[C@H]1c1ncc(-c2ccc(C#Cc3ccc4nc([C@@H]5CCCN5C(=O)[C@H](NC(=O)OC)c5ccccc5)[nH]c4c3)cc2)[nH]1)c1ccccc1
2. COC(=O)N[C@@H](C(=O)N1CCC[C@H]1c1ncc(-c2ccc(C#Cc3ccc(-c4cnc([C@@H]5CCCN5C(=O)[C@H](NC(=O)OC)[C@H](C)OC)[nH]4)cc3)cc2)[nH]1)[C@H](C)OC
3. COC(=O)N[C@H](CC(=O)N1CCC[C@H]1c1ncc(-c2ccc(C#Cc3ccc4nc([C@@H]5CCCN5C(=O)C[C@@H](NC(=O)OC)C(C)C)[nH]c4c3)cc2)[nH]1)C(C)C
4. COC(=O)N[C@H](C(=O)N1CCC[C@H]1c1ncc(-c2ccc(C#Cc3ccc4c(c3)CCc3nc([C@@H]5CCCN5C(=O)[C@@H](NC(=O)OC)C(C)C)[nH]c3-4)cc2)[nH]1)C(C)C
5. CCOC(=O)N[C@@H](C(=O)N1CCC[C@H]1c1ncc(-c2ccc(C#Cc3ccc(-c4cnc([C@@H]5CCCN5C(=O)[C@H](NC(=O)OCC)c5ccccc5)[nH]4)cc3)cc2)[nH]1)c1ccccc1
6. COC(=O)N[C@H](C(=O)N1CCC[C@H]1c1ncc(-c2ccc(C#Cc3ccc(-c4cnc([C@@H]5CCCN5C(=O)[C@@H](NC(=O)OC)C5CCOCC5)[nH]4)c(F)c3)cc2)[nH]1)C1CCOCC1

*A*
1. < 1 nM
2. 10 to 999 nM
3. 10 to 999 nM
4. < 1 nM
5. < 1 nM
6. < 1 nM
